# PROTOCOL NOTES: Photophysical characterization of probes and uncaged forms (relative fluorescence quantum yield, extinction coefficient, brightness)
# Type: physicochemical
# MEASUREMENT CONDITIONS: standard coumarin 343
PARAMETER: Quantum Yield (relative fluorescence quantum yield ΦFrel)
I only need the number, thanks.

MOLECULE: CCCCCCCCCCCCCCCC(=O)OCC(COP(=O)([O-])OCC[N+](C)(C)Cc1cn(-c2cc3ccc(OCc4ccc(N=[N+]=[N-])cc4)cc3oc2=O)nn1)OC(=O)CCCCCCCCCCCCCCC (racemic)
VALUE OBSERVED: 0.03

Give Quantum Yield (relative fluorescence quantum yield ΦFrel) for "O=c1oc2cc(O)ccc2cc1-n1cc(COCCOCCOCCO)nn1"
0.66

Give Quantum Yield (relative fluorescence quantum yield ΦFrel) for "O=C(Oc1ccc(CCC(=O)C(F)(F)F)cc1)Oc1ccc2cc(-n3cc(COCCOCCOCCO)nn3)c(=O)oc2c1"
0.08

Give Quantum Yield (relative fluorescence quantum yield ΦFrel) for CCCCCCCCCCCCCCCC(=O)OCC(COP(=O)([O-])OCC[N+](C)(C)Cc1cn(-c2cc3ccc(O)cc3oc2=O)nn1)OC(=O)CCCCCCCCCCCCCCC (racemic)
0.64

Give Quantum Yield (relative fluorescence quantum yield ΦFrel) for "[N-]=[N+]=Nc1ccc(COc2ccc3cc(-n4cc(COCCOCCOCCO)nn4)c(=O)oc3c2)cc1"
0.07

* * *

# PROTOCOL NOTES: Photophysical characterization of probes and uncaged forms (relative fluorescence quantum yield, extinction coefficient, brightness)
# Type: physicochemical
# MEASUREMENT CONDITIONS: in M⁻¹·cm⁻¹ (unit assumed)
PARAMETER: Brightness
I only need the number, thanks.

COMPOUND: [N-]=[N+]=Nc1ccc(COc2ccc3cc(-n4cc(COCCOCCOCCO)nn4)c(=O)oc3c2)cc1 [TEG-TC-H2S]
Brightness: 374

Give Brightness for O=C1OC2(c3ccc(O)cc3Oc3cc(O)ccc32)c2ccc(-n3cc(COCCOCCOCCO)nn3)cc21 [TEG-TF]
26267

Give Brightness for CCCCCCCCCCCCCCCC(=O)OCC(COP(=O)([O-])OCC[N+](C)(C)Cc1cn(-c2cc3ccc(O)cc3oc2=O)nn1)OC(=O)CCCCCCCCCCCCCCC (racemic) [DPPC-TC]
8799

Give Brightness for O=c1oc2cc(O)ccc2cc1-n1cc(COCCOCCOCCO)nn1 [TEG-TC]
10305

* * *

The entries below come with measured Ext. Coeff. values attached.
# PROTOCOL NOTES: Photophysical characterization of probes and uncaged forms (relative fluorescence quantum yield, extinction coefficient, brightness)
# Format: physicochemical
Please state the number and follow it with the unit.

Please review the following examples before continuing.
MOLECULE: O=C(Oc1ccc(CCC(=O)C(F)(F)F)cc1)Oc1ccc2cc(-n3cc(COCCOCCOCCO)nn3)c(=O)oc2c1
Ext. Coeff.: 4475 M⁻¹ cm⁻¹
//
MOLECULE: CCCCCCCCCCCCCCCC(=O)OCC(COP(=O)([O-])OCC[N+](C)(C)Cc1cn(-c2cc3ccc(OC(=O)Oc4ccc(CCC(=O)C(F)(F)F)cc4)cc3oc2=O)nn1)OC(=O)CCCCCCCCCCCCCCC (racemic)
Ext. Coeff.: 2784 M⁻¹ cm⁻¹
//
MOLECULE: O=C1OC2(c3ccc(O)cc3Oc3cc(O)ccc32)c2ccc(-n3cc(COCCOCCOCCO)nn3)cc21
Ext. Coeff.: 35982 M⁻¹ cm⁻¹
//
MOLECULE: O=c1oc2cc(O)ccc2cc1-n1cc(COCCOCCOCCO)nn1
Ext. Coeff.: 15613 M⁻¹ cm⁻¹
//
MOLECULE: [N-]=[N+]=Nc1ccc(COc2ccc3cc(-n4cc(COCCOCCOCCO)nn4)c(=O)oc3c2)cc1
Ext. Coeff.: 5347 M⁻¹ cm⁻¹

Give Ext. Coeff. for "CC1(C)OB(c2ccc(COC(=O)Oc3ccc4c(c3)Oc3cc(OC(=O)OCc5ccc(B6OC(C)(C)C(C)(C)O6)cc5)ccc3C43OC(=O)c4cc(-n5cc(COCCOCCOCCO)nn5)ccc43)cc2)OC1(C)C"
13429 M⁻¹ cm⁻¹

Give Ext. Coeff. for CCCCCCCCCCCCCCCC(=O)OCC(COP(=O)([O-])OCC[N+](C)(C)Cc1cn(-c2cc3ccc(O)cc3oc2=O)nn1)OC(=O)CCCCCCCCCCCCCCC (racemic)
13749 M⁻¹ cm⁻¹

Give Ext. Coeff. for CCCCCCCCCCCCCCCC(=O)OCC(COP(=O)([O-])OCC[N+](C)(C)Cc1cn(-c2ccc3c(c2)C(=O)OC32c3ccc(OC(=O)OCc4ccc(B5OC(C)(C)C(C)(C)O5)cc4)cc3Oc3cc(OC(=O)OCc4ccc(B5OC(C)(C)C(C)(C)O5)cc4)ccc32)nn1)OC(=O)CCCCCCCCCCCCCCC (racemic)
10685 M⁻¹ cm⁻¹

Give Ext. Coeff. for CCCCCCCCCCCCCCCC(=O)OCC(COP(=O)([O-])OCC[N+](C)(C)Cc1cn(-c2ccc3c(c2)C(=O)OC32c3ccc(O)cc3Oc3cc(O)ccc32)nn1)OC(=O)CCCCCCCCCCCCCCC (racemic)
28990 M⁻¹ cm⁻¹

Give Ext. Coeff. for CCCCCCCCCCCCCCCC(=O)OCC(COP(=O)([O-])OCC[N+](C)(C)Cc1cn(-c2cc3ccc(OCc4ccc(N=[N+]=[N-])cc4)cc3oc2=O)nn1)OC(=O)CCCCCCCCCCCCCCC (racemic)
24111 M⁻¹ cm⁻¹
